- Tested on: SW-620
- Assay Procedure: Cytotoxicity against human SW620 cells
- Type: functional
- Test Context: read-out: pLC50 (the source's name) (converted)
Entries and their CC50

Structure Notation | CC50
COc1cc(/C=C/c2cc(O)c3ccn(C)c3c2)cc2c1O[C@]1(C)CC[C@@H](O)C(C)(C)[C@H]1C2 | > 100 µM
COc1cc(/C=C/c2cc(O)c3c(c2)C[C@@H]2C(C)(C)[C@H](O)CC[C@@]2(C)O3)cc2c1ccn2C | 18.6 µM
COc1cc(/C=C/c2cc(OC)c3c(CC=C(C)C)c[nH]c3c2)cc2c1O[C@]1(C)CC[C@@H](O)C(C)(C)[C@H]1C2 | 4.07 µM
COc1cc(/C=C/c2cc(OC)c3ccn(C)c3c2)cc2c1O[C@]1(C)CC[C@@H](O)C(C)(C)[C@H]1C2 | 10.5 µM

====

- System: HOP-92
- Assay Procedure: Cytotoxicity against human HOP92 cells
- Format: functional
Test Readout: GI50

Structure Notation | Measured Result
COc1cc(/C=C/c2cc(O)c3cc(CC=C(C)C)[nH]c3c2)cc2c1O[C@]1(C)CC[C@@H](O)C(C)(C)[C@H]1C2 | 1380 nM
COc1cc(/C=C/c2cc(O)c3c(C/C=C(\C)CCC=C(C)C)c[nH]c3c2)cc2c1O[C@]1(C)CC[C@@H](O)C(C)(C)[C@H]1C2 | 724 nM
COc1cc(/C=C/c2cc(O)c3cc[nH]c3c2)cc2c1O[C@]1(C)CC[C@@H](O)C(C)(C)[C@H]1C2 | 1230 nM
COc1cc(/C=C/c2cc(OC)c3ccn(C)c3c2)cc2c1O[C@]1(C)CC[C@@H](O)C(C)(C)[C@H]1C2 | 1200 nM
COc1cc(/C=C/c2cc(O)c3c(c2)C[C@@H]2C(C)(C)[C@H](O)CC[C@@]2(C)O3)cc2c1ccn2C | 955 nM
COc1cc(/C=C/c2cc(O)c3c(CC=C(C)C)c[nH]c3c2)cc2c1O[C@]1(C)CC[C@@H](O)C(C)(C)[C@H]1C2 | 589 nM
COc1cc(/C=C/c2cc(O)c3c(c2)C[C@@H]2C(C)(C)[C@H](O)CC[C@@]2(C)O3)cc2[nH]cc(CC=C(C)C)c12 | 1150 nM

====

- Test system: HCT-116
- Assay Procedure: Cytotoxicity against human HCT116 cells
- Format: functional
- Test Context: read-out: pLC50 (the source's name) (converted)
# key: entry, value: CC50

Structure Notation | CC50
COc1cc(/C=C/c2cc(O)c3c(CC=C(C)C)c[nH]c3c2)cc2c1O[C@]1(C)CC[C@@H](O)C(C)(C)[C@H]1C2 | 50.1 µM
COc1cc(/C=C/c2cc(O)c3c(C/C=C(\C)CCC=C(C)C)c[nH]c3c2)cc2c1O[C@]1(C)CC[C@@H](O)C(C)(C)[C@H]1C2 | > 100 µM
COc1cc(/C=C/c2cc(O)c3cc(CC=C(C)C)[nH]c3c2)cc2c1O[C@]1(C)CC[C@@H](O)C(C)(C)[C@H]1C2 | > 100 µM
COc1cc(/C=C/c2cc(OC)c3cc[nH]c3c2)cc2c1O[C@]1(C)CC[C@@H](O)C(C)(C)[C@H]1C2 | 6.03 µM
COc1cc(/C=C/c2cc(OC)c3ccn(C)c3c2)cc2c1O[C@]1(C)CC[C@@H](O)C(C)(C)[C@H]1C2 | 51.3 µM
COc1cc(/C=C/c2cc(OC)c3c(C/C=C(\C)CCC=C(C)C)c[nH]c3c2)cc2c1O[C@]1(C)CC[C@@H](O)C(C)(C)[C@H]1C2 | 43.7 µM
COc1cc(/C=C/c2cc(O)c3c(c2)C[C@@H]2C(C)(C)[C@H](O)CC[C@@]2(C)O3)cc2c1ccn2C | 35.5 µM
